# System Under Test: Norepinephrine (NE) uptake into rat brain synaptosome (hippocampus) (Rattus norvegicus, UniProt Q63380)
# Construct: used as crude synaptosome fraction
# Sequence (Q63380 1-617): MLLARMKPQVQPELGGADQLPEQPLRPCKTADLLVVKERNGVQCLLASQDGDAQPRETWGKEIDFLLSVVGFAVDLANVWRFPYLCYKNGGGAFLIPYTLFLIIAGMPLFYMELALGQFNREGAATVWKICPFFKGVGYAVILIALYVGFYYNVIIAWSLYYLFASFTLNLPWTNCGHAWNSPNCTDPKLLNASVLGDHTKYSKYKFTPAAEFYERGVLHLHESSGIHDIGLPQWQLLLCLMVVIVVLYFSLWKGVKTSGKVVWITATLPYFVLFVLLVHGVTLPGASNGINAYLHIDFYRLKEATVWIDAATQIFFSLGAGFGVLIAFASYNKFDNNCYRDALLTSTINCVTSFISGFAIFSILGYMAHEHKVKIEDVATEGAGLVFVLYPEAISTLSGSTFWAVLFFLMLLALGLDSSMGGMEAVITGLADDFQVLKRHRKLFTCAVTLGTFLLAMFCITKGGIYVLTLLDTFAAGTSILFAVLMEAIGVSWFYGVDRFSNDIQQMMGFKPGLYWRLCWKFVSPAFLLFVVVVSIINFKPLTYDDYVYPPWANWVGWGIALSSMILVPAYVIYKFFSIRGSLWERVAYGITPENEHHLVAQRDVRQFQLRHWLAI
# Assay Procedure: Inhibitory activity on norepinephrine (NE) uptake into rat brain synaptosome
# Setup Conditions: tritium-labeled NE 12 nM uptake, 10 min at 37° C., read-out: 50% inhibitory concentration
pIC50: −log10 of the molar value.
Measurement Kind: pIC50

Worked examples follow.
Molecule	pIC50
Fc1ccc(N(c2ccc(-c3cnco3)cc2)[C@H]2CCNC2)cc1Cl [Example 90]	9.15
c1cc(N(c2ccc3sccc3c2)[C@H]2CCNC2)cs1 [Example 1002]	10.00
Cc1ccc(N(c2cccc(F)c2)[C@H]2CCNC2)cc1Cl [Example 98]	9.52
Fc1ccc(N(c2ccccc2)[C@H]2CCNC2)cc1Cl [Example 44]	9.40

[P] Fc1ccc(N(c2ccsc2)[C@H]2CCNC2)cc1Cl [Example 278]
[Q] Fc1ccc(N(C2CCCC2)[C@H]2CCNC2)cc1Cl [Example 306]
[R] Clc1ccc(N(c2ccccn2)[C@H]2CCNC2)cc1Cl [Example 188]
Enquiry: Task for the reader: rank each entry by its pIC50, from the minimum upward. Could you list the labels in the order requested?
Return: Q, P, R
